test system: Aspergillus fumigatus; assay: Antifungal activity against Aspergillus fumigatus ATCC 28212 assessed as growth inhibition at 10 ug/mL after 72 hr by agar cup plate method; format: functional; details: ATCC 28212, 72 h, read-out: DIZ
QUANTITY_MEASURED: zone of inhibition at 10 µg/mL
A complete answer gives the number followed by the unit.

Input line: What value of measured zone of inhibition at 10 µg/mL is listed for CS(=O)(=O)Nc1sc2c(c1C(=O)NN1C(=O)CSC1c1c[nH]c3ccccc13)CCCC2 (centres undefined) ?
Output line: 6 mm

Input line: Could you tell me which zone of inhibition at 10 µg/mL is on file for COc1ccc(C2SCC(=O)N2NC(=O)c2c(NS(C)(=O)=O)sc3c2CCCC3)cc1 (centres undefined) ?
Output line: 6 mm

Input line: Given CS(=O)(=O)Nc1sc2c(c1C(=O)NN1C(=O)CSC1c1coc3ccccc3c1=O)CCCC2 (centres undefined) , state its recorded zone of inhibition at 10 µg/mL.
Output line: 4 mm

Input line: Look up zone of inhibition at 10 µg/mL: CS(=O)(=O)Nc1sc2c(c1C(=O)NN1C(=O)CSC1c1cc3ccccc3nc1Cl)CCCC2 (centres undefined)
Output line: 8 mm

Input line: // returns reported zone of inhibition at 10 µg/mL for input CS(=O)(=O)Nc1sc2c(c1C(=O)NN1C(=O)C(Cl)C1c1ccc([N+](=O)[O-])cc1)CCCC2 (centres undefined)
Output line: 6 mm

Input line: // returns reported zone of inhibition at 10 µg/mL for input COc1ccc(C2SCC(=O)N2NC(=O)c2c(NS(C)(=O)=O)sc3c2CCCC3)cc1OC (centres undefined)
Output line: 6 mm

Input line: Entry CS(=O)(=O)Nc1sc2c(c1C(=O)NN1C(=O)C(Cl)C1c1cccc([N+](=O)[O-])c1)CCCC2 (centres undefined) : reported zone of inhibition at 10 µg/mL = ?
Output line: 8 mm

Input line: Report zone of inhibition at 10 µg/mL for COc1ccc(C2C(Cl)C(=O)N2NC(=O)c2c(NS(C)(=O)=O)sc3c2CCCC3)cc1OC (centres undefined) please.
Output line: 9 mm

Input line: // lookup zone of inhibition at 10 µg/mL for CS(=O)(=O)Nc1sc2c(c1C(=O)NN1C(=O)C(Cl)C1c1ccc(Cl)cc1)CCCC2 (centres undefined)
Output line: 5 mm

---

Give measured zone of inhibition at 10 µg/mL for each item. Keep answers brief.
tested on: Aspergillus fumigatus; experiment: Antifungal activity against Aspergillus fumigatus ATCC 28212 assessed as growth inhibition at 10 ug/mL after 72 hr by agar cup plate method; type: functional; details: ATCC 28212, 72 h, read-out: DIZ
Your answer should be a plain number; it is taken to be in mm.

Input line: # get_value(readout='zone of inhibition at 10 µg/mL', item= CS(=O)(=O)Nc1sc2c(c1C(=O)NN1C(=O)C(Cl)C1c1ccccc1)CCCC2 (stereo not drawn) )
Output line: 4

Input line: Suppose we examine the molecule CS(=O)(=O)Nc1sc2c(c1C(=O)NN1C(=O)C(Cl)C1c1c[nH]c3ccccc13)CCCC2 (stereo not drawn) ; what zone of inhibition at 10 µg/mL value has been reported?
Output line: 7

Input line: Could you tell me which zone of inhibition at 10 µg/mL is on file for CS(=O)(=O)Nc1sc2c(c1C(=O)NN1C(=O)CSC1c1ccc([N+](=O)[O-])cc1)CCCC2 (stereo not drawn) ?
Output line: 8

Input line: For the molecule CS(=O)(=O)Nc1sc2c(c1C(=O)NN1C(=O)CSC1c1ccc(Cl)cc1)CCCC2 (stereo not drawn) , what zone of inhibition at 10 µg/mL is on record?
Output line: 7

Input line: Requested field: zone of inhibition at 10 µg/mL. Item: CS(=O)(=O)Nc1sc2c(c1C(=O)NN1C(=O)CSC1c1ccccc1Cl)CCCC2 (stereo not drawn)
Output line: 6

Input line: # query: zone of inhibition at 10 µg/mL of entry CS(=O)(=O)Nc1sc2c(c1C(=O)NN1C(=O)C(Cl)C1c1coc3ccccc3c1=O)CCCC2 (stereo not drawn)
Output line: 7

Input line: I would be grateful if you could share the reported zone of inhibition at 10 µg/mL for COc1ccc(C2C(Cl)C(=O)N2NC(=O)c2c(NS(C)(=O)=O)sc3c2CCCC3)cc1 (stereo not drawn) .
Output line: 6

Input line: Quick check: zone of inhibition at 10 µg/mL of CC(=O)N1CCN(c2ccc(OCC3COC(Cn4ccnc4)(c4ccc(Cl)cc4Cl)O3)cc2)CC1 (stereo not drawn) ?
Output line: 10

Input line: Quick one: zone of inhibition at 10 µg/mL for CS(=O)(=O)Nc1sc2c(c1C(=O)NN1C(=O)CSC1c1ccccc1)CCCC2 (stereo not drawn) ?
Output line: 5

Input line: Form field: reported zone of inhibition at 10 µg/mL of CS(=O)(=O)Nc1sc2c(c1C(=O)NN1C(=O)CSC1c1cccc([N+](=O)[O-])c1)CCCC2 (stereo not drawn)
Output line: 6

Input line: Look up zone of inhibition at 10 µg/mL for this molecule: CS(=O)(=O)Nc1sc2c(c1C(=O)NN1C(=O)C(Cl)C1c1cc3ccccc3nc1Cl)CCCC2 (stereo not drawn)
Output line: 6

Input line: Returns the measured zone of inhibition at 10 µg/mL for the input molecule. Input: Clc1ccccc1C(c1ccccc1)(c1ccccc1)n1ccnc1
Output line: 20

Input line: Please report the recorded zone of inhibition at 10 µg/mL for CS(=O)(=O)Nc1sc2c(c1C(=O)NN1C(=O)C(Cl)C1c1ccccc1Cl)CCCC2 (stereo not drawn) .
Output line: 6
